// provenance: patent US20260070917A1

# measurement-target: CCNE1 (Homo sapiens, UniProt P24864)
# Construct: host or cells: HEK293-CCNE1-Hibit
# Sequence (P24864 whole entry): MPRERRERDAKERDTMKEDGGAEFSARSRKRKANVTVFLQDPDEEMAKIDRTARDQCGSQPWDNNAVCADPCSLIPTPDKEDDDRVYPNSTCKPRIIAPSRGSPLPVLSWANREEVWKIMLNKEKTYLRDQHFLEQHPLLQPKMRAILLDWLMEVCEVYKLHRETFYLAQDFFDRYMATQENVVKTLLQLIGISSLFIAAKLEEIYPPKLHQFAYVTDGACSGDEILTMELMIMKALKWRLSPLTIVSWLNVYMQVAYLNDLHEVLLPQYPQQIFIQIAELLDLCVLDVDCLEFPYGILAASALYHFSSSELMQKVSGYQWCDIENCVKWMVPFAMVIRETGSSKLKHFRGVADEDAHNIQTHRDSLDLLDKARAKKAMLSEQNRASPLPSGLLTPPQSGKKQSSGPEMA
# assay-overview: HiBit Assay Protocol for CCNE1 (HIBIT protein quantification, degradation)
# Type: cell-based
# condition-parameters: HEK293-CCNE1-Hibit cells, compound treatment for 6 hours
CCNE1 HIBIT Protein Quantification Maximum values by entry
The answer is to be given in %; state only the numeric part.

Look over these answered cases.
{"columns": ["molecule", "measurement-target", "value-measured"],
 "data": [
  ["Cn1c(=O)n(C2CCC(=O)NC2=O)c2cccc(C3CCN(CC4CCN(S(=O)(=O)c5ccc(Nc6ncc7c(n6)N([C@@H]6CCC[C@@H](O)C6)C(=O)C76CC6)cc5)CC4)CC3)c21 (stereo partly drawn)", "CCNE1 (Homo sapiens, UniProt P24864)", 32],
  ["Cc1ccc(CN2CCC(c3ccc4c(N5CCC(=O)NC5=O)nn(C)c4c3)CC2)cc1S(=O)(=O)N1CCC(Nc2ncc3c(n2)N([C@@H]2CCC[C@@H](O)C2)C(=O)C32CC2)CC1", "CCNE1 (Homo sapiens, UniProt P24864)", 38]
]}

Input: # query: CCNE1 HIBIT Protein Quantification Maximum of entry O=C1CCC(N2Cc3cc(N4CCC(CN5CCN(c6cccc(S(=O)(=O)N7CCC(Nc8ncc9c(n8)N([C@@H]8CCC[C@@H](O)C8)C(=O)C98CC8)CC7)c6)CC5)CC4)ccc3C2=O)C(=O)N1 (stereo partly drawn)
Output: 22
